# Tested on: SK-MEL-5 melanoma
# assay-remarks: NCI tumour cell line growth inhibition, 48 h
The label depends only on TGI: Y if it is at least 30 µM, N if it is smaller.

# compound, tested-on, answer-label
data = [
    ("Cc1cc(C)nc(NS(=O)(=O)c2ccc(NC(=O)c3cccn4c(=O)c5ccccc5nc34)cc2)n1", "SK-MEL-5 melanoma", "Y"),
]

In plain terms: is recorded TGI at least 30 µM for CC1=C(Cl)C[C@@H](/C(C)=C\Cl)O[C@@]1(O)C(Br)Br ? Y

In plain terms: is recorded TGI at least 30 µM for CC(C)(C)c1cc(C(=O)/C=C/c2ccn[nH]2)cc(C(C)(C)C)c1O ? N

In plain terms: is recorded TGI at least 30 µM for Nc1cc2cccc[n+]2c2cccc(Cl)c12 ? N
